Give logP for every item shown.
assay: method code SF, from Hansch, C. & Leo, A. (1987). Log P database [Dataset]. Pomona College Medicinal Chemistry Project.
Respond with the number and no other words.

Given the entry O=C1OC2(CCCC2)c2ccccc21 , report its measured logP. 2.56

Which logP value belongs to O=C(NO)c1ccccc1 ? 0.26

Which logP value belongs to Cc1ccc(C=C(C#N)C#N)cc1 ? 2.4

// query logP value for entry CCC(O)CC 1.21

# get_value(readout='logP', item= CNc1cccc2ccccc12 ) 2.88

logP lookup needed for CCC(C)c1ccccc1O (centres undefined) , thanks. 3.27

Which logP value is on record for CC(=O)c1csc2ccccc12 ? 2.78

Would you kindly share the measured logP for O=S1(=O)N=C(C2CCCC2)Nc2ccccc21 ? 1.83

For the compound CN(C)CCc1cccs1 , what logP is on record? 1.99

All figures here come from the SangsterLogP compilation.
